biological target: CCK receptors (Cavia porcellus); construct: cortex and pancreas were removed and rinsed with ice-cold saline; from tissue; host or cells: guinea pig pancreas membranes; assay: [125I]BH-CCK8 radioligand binding, guinea pig pancreatic membranes; settings: 37°C for 30 min, read-out: IC₅₀ (nM) [¹²⁵I]-BH-CCK₈ Pancreas
Sequence (Q63931 whole entry): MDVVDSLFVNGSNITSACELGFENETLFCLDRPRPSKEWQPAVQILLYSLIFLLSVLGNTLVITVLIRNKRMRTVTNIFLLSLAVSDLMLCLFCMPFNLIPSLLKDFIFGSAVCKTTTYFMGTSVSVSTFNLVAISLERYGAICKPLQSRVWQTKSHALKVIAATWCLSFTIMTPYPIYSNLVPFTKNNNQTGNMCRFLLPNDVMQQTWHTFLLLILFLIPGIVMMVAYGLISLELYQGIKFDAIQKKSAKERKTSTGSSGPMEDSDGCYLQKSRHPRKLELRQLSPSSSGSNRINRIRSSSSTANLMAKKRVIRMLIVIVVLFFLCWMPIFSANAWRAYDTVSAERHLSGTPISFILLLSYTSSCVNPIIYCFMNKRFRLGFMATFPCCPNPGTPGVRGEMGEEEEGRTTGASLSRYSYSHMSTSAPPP
Where a name gives a salt, the structure may show the parent alone.
measured_metric: IC50 (nM)

A: CCCCCN(CCCCC)C(=O)[C@@H](Cc1c[nH]c2ccccc12)NC(=O)c1cnc2ccccc2c1 [Example 117, mesylate salt]
B: CCCCCN(CCCCC)C(=O)[C@@H](Cc1c(Sc2ccccc2[N+](=O)[O-])[nH]c2ccccc12)NC(=O)c1cnc2ccccc2c1 [Example 45]
**Q:** Which record would sort first by descending IC50, A or B ? Pick one and reply with its label.
**A:** B
(B: 1500 nM, A: 17 nM)
